# Tested on: MOLT-4 leukemia
# protocol-text: NCI-60 one-dose screen, 48 h
# condition: 10 µM
# Experimental: Growth inhibition of the MOLT-4 human tumor cell line is measured as a screen for anti-cancer activity. Cells are grown in 96 well plates and exposed to the test compound for 48 hours. Compounds are tested at a single concentration, which is 10^-5 M for most compounds. The reported endpoint is percent growth (GI% or GIPRCNT), where numbers from 0 - 100% represent growth inhibition, and numbers from -100% - 0 represent cell death. For example, a value of 40 represents 60% growth inhibition. […]
Compounds without any hit were thinned out: in the full panel of roughly 83,000, 20% have a hit. Activity calls are given as the source filed them. The calls were made as follows: active = growth percent below 10; inactive = the rest.
// allowed return values: TRUE for active, FALSE for inactive

## Input # lookup: test call for CNS(=O)(=O)c1ccc(Cl)c(Cl)c1
## Output FALSE

## Input # lookup: test call for OCC(O)C(O)C(O)C(O)/C=N/O (centres undefined)
## Output FALSE

## Input # lookup: test call for CCCCCCCCO
## Output FALSE

## Input # lookup: test call for CC1(C)OC(=O)C(c2ccsc2)C(=O)O1
## Output FALSE

## Input # lookup: test call for CC(=O)Nc1cccc(NC(C)=O)n1
## Output FALSE

---
## Input # lookup: test call for CC(=O)OC(C(=O)O)c1ccccc1 (centres undefined)
## Output FALSE

## Input # lookup: test call for CCOC(=O)/C(=C/c1ccc(OC)cc1)N(CC)CC
## Output FALSE

## Input # lookup: test call for CC(=O)Nc1c(C)cc(C)cc1C
## Output FALSE

## Input # lookup: test call for O=C(c1ccc(O)cc1)c1ccc(O)cc1
## Output FALSE

## Input # lookup: test call for CC1Cc2ccccc2O1 (centres undefined)
## Output FALSE

## Input # lookup: test call for c1cc[n+](C2c3ccccc3C([n+]3ccccc3)c3ccccc32)cc1 (centres undefined)
## Output FALSE

## Input # lookup: test call for CN(C)C(=O)Oc1cccc([N+](C)(C)C)c1
## Output FALSE

## Input # lookup: test call for Nc1nc(OCc2ccccc2)c2[nH]cnc2n1
## Output FALSE

## Input # lookup: test call for COc1cc(C2c3cc4c(cc3C3OC(=O)C2C3CO)OCO4)cc(OC)c1OC (centres undefined)
## Output TRUE

----------
# System: A549/ATCC NSCLC
# protocol-text: NCI-60 one-dose screen, 48 h (100 = growth as untreated, 0 = no growth, -100 = all killed)
# condition: 10 µM
This is part of a sample that, as a whole, favours compounds with a hit. Of some 83,000 tested, about 20% had one in any assay.
Where growth equals or exceeds 90%, the correct label is satisfied; where it does not, the label is not satisfied.

## Input # check: growth of FC(F)(F)c1ccc2c(c1)N(CCCN1CCN(C3CC3)CC1)c1ccccc1S2 is greater than or equal to 90%
## Output not satisfied

## Input # check: growth of O=C(O)C(Cc1ccccc1)C(=O)O is greater than or equal to 90%
## Output satisfied

## Input # check: growth of CCCCCCCCO is greater than or equal to 90%
## Output satisfied

## Input # check: growth of CCCCCCCCCCC(C)Br (configuration not stated) is greater than or equal to 90%
## Output satisfied

Continue with the next compound.
## Input # check: growth of c1ccc(Cc2ccccc2)cc1 is greater than or equal to 90%
## Output not satisfied
